Test system: HT-29
Assay: Antiproliferative activity against human HT-29 cells assessed as reduction in cell viability after 72 hrs by MTT assay
Assay type: functional, cell-based
Settings: HT-29, 72 h
pIC50: −log10 of the molar value.
measurement-type: pIC50

• CNC(=O)c1cc(Oc2ccc(-n3cc(-c4cccs4)nn3)cc2)ccn1 = 6.08 to 6.70
• COc1cccc2c1C(=O)c1c(O)c3c(c(O)c1C2=O)C[C@@](O)(C(=O)CO)C[C@@H]3O[C@H]1C[C@H](N)[C@H](O)[C@H](C)O1 = 6.47 to 7.82
• O=C1C=C(NCc2cn(Cc3ccc(C(F)(F)F)cc3)nn2)C(=O)c2ccccc21 = 4.98 to 5.17
• CC(C)(C)c1ccc(Cn2cc(CNC3=CC(=O)c4ccccc4C3=O)nn2)cc1 = 4.50 to 5.17
• CNC(=O)c1cc(Oc2ccc(-n3cc(-c4cccc(F)c4)nn3)cc2)ccn1 = 6.08 to 6.70
• CNC(=O)c1cc(Oc2ccc(-n3cc(-c4ccccc4F)nn3)cc2)ccn1 = 6.08 to 6.70
• CNC(=O)c1cc(Oc2ccc(NC(=O)Nc3ccc(Cl)c(C(F)(F)F)c3)cc2)ccn1 = 5.28
